Items are presented alongside their recorded Papp B→A at 150 min, 2 μM.
Tested on: MDR1 (P-glycoprotein)
test-protocol: Permeability evaluation on MDR1-MDCK II cell line
conditions-used: dog, MDCK-MDR1, pH 7.4
parameter: Papp B→A at 150 min, 2 μM (×10⁻⁶ cm/s)

INSERT INTO results (compound, parameter, recorded_value) VALUES
  ('CCn1c(CO)nn(-c2cc(O[C@@H](C)C(F)(F)F)c(/C(F)=C/c3ncccc3Cl)cc2F)c1=O [Compound 5]', 'Papp B→A at 150 min, 2 μM', 18.2),
  ('CCn1c(CO)nn(-c2cc(O[C@@H](C)C(F)(F)F)c(/C(F)=C/c3cnccc3Cl)cc2F)c1=O [Compound 28]', 'Papp B→A at 150 min, 2 μM', 10.7),
  ('CCn1c(CO)nn(-c2cc(O[C@@H](C)C(F)(F)F)c(/C(F)=C/c3cccnc3Cl)cc2F)c1=O [Compound 26]', 'Papp B→A at 150 min, 2 μM', 7.76),
  ('CCn1c(CO)nn(-c2cc(O[C@@H](C)C(F)(F)F)c(/C(F)=C/c3cccnc3C(F)F)cc2F)c1=O [Compound 39]', 'Papp B→A at 150 min, 2 μM', 13.9),
  ('CCn1c(CO)nn(-c2cc(O[C@@H](C)C(F)(F)F)c(/C(F)=C/c3cccnc3OC)cc2F)c1=O [Compound 6]', 'Papp B→A at 150 min, 2 μM', 3.55);

----------
test-protocol: Pharmacokinetic evaluation in mice (IV and PO)
Type: in vivo, female Balb/c mice
conditions-used: IV 0.2 mg/kg
Items are presented alongside their recorded Tlast.
parameter: Tlast (h)

INSERT INTO measurements (entry_smiles, recorded_value) VALUES
  ('CCn1c(CO)nn(-c2cc(O[C@@H](C)C(F)(F)F)c(/C(F)=C/c3cccnc3OC)cc2F)c1=O', 24.0),
  ('CCn1c(CO)nn(-c2cc(O[C@@H](C)C(F)(F)F)c(/C(F)=C/c3ncccc3Cl)cc2F)c1=O', 24.0),
  ('CCn1c(CO)nn(-c2cc(O[C@@H](C)C(F)(F)F)c(/C(F)=C/c3cccnc3Cl)cc2F)c1=O', 24),
  ('CCn1c(CO)nn(-c2cc(O[C@@H](C)C(F)(F)F)c(/C(F)=C/c3cccnc3C(F)F)cc2F)c1=O', 24.0);

----------
test-protocol: Pharmacokinetic evaluation in mice (IV and PO)
Assay type: in vivo, female Balb/c mice
conditions-used: PO 1 mg/kg
parameter: F

INSERT INTO measurements (compound, parameter, recorded_value) VALUES
  ('CCn1c(CO)nn(-c2cc(O[C@@H](C)C(F)(F)F)c(/C(F)=C/c3cccnc3C(F)F)cc2F)c1=O [Compound 39]', 'F', '97.4%'),
  ('CCn1c(CO)nn(-c2cc(O[C@@H](C)C(F)(F)F)c(/C(F)=C/c3ncccc3Cl)cc2F)c1=O [Compound 5]', 'F', '95.8%'),
  ('CCn1c(CO)nn(-c2cc(O[C@@H](C)C(F)(F)F)c(/C(F)=C/c3cccnc3Cl)cc2F)c1=O [Compound 26]', 'F', '80.2%'),
  ('CCn1c(CO)nn(-c2cc(O[C@@H](C)C(F)(F)F)c(/C(F)=C/c3cccnc3OC)cc2F)c1=O [Compound 6]', 'F', '85.4%');
